Biological target: T1, human OX40 on cells (CHO-K1/hu OX40) (human, UniProt P43489 29-277)
T1 sequence (looked up): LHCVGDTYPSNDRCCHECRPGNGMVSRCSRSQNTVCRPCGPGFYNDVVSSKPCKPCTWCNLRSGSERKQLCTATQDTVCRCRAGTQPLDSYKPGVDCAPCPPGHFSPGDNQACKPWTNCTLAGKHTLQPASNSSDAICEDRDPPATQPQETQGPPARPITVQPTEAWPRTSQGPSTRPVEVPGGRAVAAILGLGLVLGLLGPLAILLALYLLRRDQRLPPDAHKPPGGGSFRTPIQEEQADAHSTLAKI
Assay: cell-based or functional assay
outcome-measure: Maximum fluorescence signal value, HEK293/OX40/NF-kb luciferase reporter (luminescence)
Kindly answer with a numeric value in luminescence, unit omitted.

Entry PR002068 (antibody, human IgG1, V domains shown, no light chain; also called anti-OX40 HCAb antibody) VH: EVQLLESGGGLVQPGGSLRLSCAASGFSFSSYAMTWVRQAPGKGLEWVSAISGGGGSIFYADSVRGRFTISRDNSKNTLYLQMNSLRAEDTAVYYCANGMTGSTDVDYWGQGTQVTVSS ; Maximum fluorescence signal value, HEK293/OX40/NF-kb luciferase reporter = 139000

Entry PR002070 (antibody, human IgG1, V domains shown, no light chain; also called anti-OX40 HCAb antibody) VH: EVQLLESGGGLVQPGGSLRLSCIASGFSFSSYAMSWVRQAPGKGLEWVSAISGRGGSTFYADSVRGRFNISRDNSKNTLYLQMNSLRVEDTAVYYCANGMTGTTDVDYWGQGTLVTVSS ; Maximum fluorescence signal value, HEK293/OX40/NF-kb luciferase reporter = 129000

Entry PR002060 (antibody, human IgG1, V domains shown, no light chain; also called anti-OX40 HCAb antibody) VH: EVQLLESGGGLVQPGGSLRLSCAASGFTFSDYAMSWVRQAPGKGLEWVSAISGRGGSTYYADSVRGRFTISRDNSKNTLYLQMTSLRAEDTAVYYCANGMTGTTDVDYWGQGTLVTVSS ; Maximum fluorescence signal value, HEK293/OX40/NF-kb luciferase reporter = 132000

Entry PR002067 (antibody, human IgG1, V domains shown, no light chain; also called anti-OX40 HCAb antibody) VH: EVQLLESGGGLVQPGGSLRLSCAASGFTFSSYAMSWVRQAPGKGLEWVSAISGRGGSTFYADSVRGRFTISRDNSKNTLYLQMNSLRAEDTAMYYCVDGTTGTTDVDYWGQGTLVTVSS ; Maximum fluorescence signal value, HEK293/OX40/NF-kb luciferase reporter = 137000

Entry PR002057 (antibody, human IgG1, V domains shown, no light chain; also called anti-OX40 HCAb antibody) VH: EVQLLESGGGLVQPGGSLRLSCAASGFIFSSYAMSWVRQAPGKGLEWVSAISGGGGSTFYADSVRGRFTISRDNSKNTLYLQMNSLRAEDTAVYYCADGMTGTTDVDYWGQGTLVTVSS ; Maximum fluorescence signal value, HEK293/OX40/NF-kb luciferase reporter = 172000

Entry PR002056 (antibody, human IgG1, V domains shown, no light chain; also called anti-OX40 HCAb antibody) VH: EVQLLESGGGLVQPGGSLRLSCAASGFTFSSYAMSWVRQAPGKGLEWVSAISGGGGSIFYADSVRGRFTISRDNSKNTLYLQMNSLRAEDTAVYYCANGMTGTTDVDYWGQGTLVTVSS ; Maximum fluorescence signal value, HEK293/OX40/NF-kb luciferase reporter = 154000

Entry PR002072 (antibody, human IgG1, V domains shown, no light chain; also called anti-OX40 HCAb antibody) VH: EVQLLESGGGLVQPGGSLRLSCAASGFTFSSYAMSWVRQASGKGLEWISAISGSGGSTYYADSVRGRFTISRDNSKNTLYLQMNSLRADDTAVYYCANGMTGTTDVDFWGQGTPVTVSS ; Maximum fluorescence signal value, HEK293/OX40/NF-kb luciferase reporter = 99600

Entry PR002065 (antibody, human IgG1, V domains shown, no light chain; also called anti-OX40 HCAb antibody) VH: EVQLVESGGGLVQPGGSLRLSCAASGFTFSSYAMSWVRQAPGKGLEWVSAISGRGDITFYADSVRGRFTISRDNSKNTLYLQMNSLRAEDTALYYCANGMTGSTDVDFWGQGTLVTVSS ; Maximum fluorescence signal value, HEK293/OX40/NF-kb luciferase reporter = 149000

Entry PR002071 (antibody, human IgG1, V domains shown, no light chain; also called anti-OX40 HCAb antibody) VH: EVQLVESGGGLVQPGGSLRLSCAASGFTFSSYAMSWVRQAPGKGLEWVSAISGGGGSIFYADSVRGRFTISRDNSKNTLYLQMNSLRAEDTAVYYCANGMTGTTDVDYWGQGTLVTVSS ; Maximum fluorescence signal value, HEK293/OX40/NF-kb luciferase reporter = 144000

Entry PR002066 (antibody, human IgG1, V domains shown, no light chain; also called anti-OX40 HCAb antibody) VH: EVQLLESGGGLVQPGGSLRLSCIASGFTFSSYAMSWVRQAPGKGLEWVSAISGRGGSTFYADSVRGRFTISRDNSKNTLYLQMNSLRAEDTAVYYCANGMTGTTDVDYWGQGTQVTVSS ; Maximum fluorescence signal value, HEK293/OX40/NF-kb luciferase reporter = 147000

Entry PR002063 (antibody, human IgG1, V domains shown, no light chain; also called anti-OX40 HCAb antibody) VH: EVQLLESGGGLVQPGGSLRLSCAASGFTFSSYAMSWVRQAPGRGLEWVSAISGGGGSTFYADSVRGRFTISRDNSKNTLYLQMSSLRAEDTAVYYCANGMTGTTDVDYWGQGTRVTVSS ; Maximum fluorescence signal value, HEK293/OX40/NF-kb luciferase reporter = 150000

Entry PR002073 (antibody, human IgG1, V domains shown, no light chain; also called anti-OX40 HCAb antibody) VH: EVQLVESGGGLVQPGGSLRLSCAASGFTFSSYAMSWVRQAPGKGLEWVSAISGGSGSTFYADSVRGRFTISRDNSKNTLYLQMNSLRAEDTAVYYCADGVTGTDFDFWGQGTLVTVSS ; Maximum fluorescence signal value, HEK293/OX40/NF-kb luciferase reporter = 121000

Entry PR002076 (antibody, human IgG1, V domains shown, no light chain; also called anti-OX40 HCAb antibody) VH: EVQLLESGGGLVQPGGSLRLSCAASGFTFSSYAMSWVRQAPGKGLEWVSAISGSGGNTYYADSVRGRFTISRDNSKNTLYLQMNSLRAEDTAVYYCANGMTGTTDVDYWGQGTRVTVSS ; Maximum fluorescence signal value, HEK293/OX40/NF-kb luciferase reporter = 141000

Entry PR002058 (antibody, human IgG1, V domains shown, no light chain; also called anti-OX40 HCAb antibody) VH: EVQLLESGGGLVQPGGSLRLSCAASGFTFSSYAMSWVRQAPGKGLEWVSAISGGSGSTFYADSVRGRFTISRDNSKNTLYLQMNSLRAEDTAVYYCADGVTGTDFDFWGQGTLVTVSS ; Maximum fluorescence signal value, HEK293/OX40/NF-kb luciferase reporter = 136000

Entry PR002059 (antibody, human IgG1, V domains shown, no light chain; also called anti-OX40 HCAb antibody) VH: EVQLLESGGGLVQPGGSLRLSCVVSGLTFSSYAMSWVRQAPGKGREWVSAISGRGGSTFYADSVRGRFTISRDNSKNTLYLQMNSLRAEDTAVYYCANGMTGSTDVDYWGQGTLVTVSS ; Maximum fluorescence signal value, HEK293/OX40/NF-kb luciferase reporter = 117000

Hey, just so you know, these numbers are from patent US20230295324A1.
